subjectOfTest: Ataxin-2 (Homo sapiens)
assayMethodText: qHTS for Inhibitors of ATXN expression.
Format: functional
About 2,100 (0.53%) of roughly 400,000 compounds were called active. Inconclusive results (about 14%) are left out. How the calls were made is not given here. Many of the other results were omitted from the sample, so actives are more common in it than they were.
// one of active, inactive, no free text

Call for entry "CCN(C(=O)COC(=O)/C=C/c1ccc2c(c1)OCO2)c1c(N)n(Cc2ccccc2)c(=O)[nH]c1=O" :
inactive

Call for entry "COc1cc(/C=C2\C=CC(=O)O2)cc(OC)c1" :
inactive

Call for entry "CC(=O)Nc1ccc(NC(=O)/C=C/c2ccc3c(c2)OCO3)cc1" :
inactive

Call for entry CC1(Cc2cccc(C(F)(F)F)c2)C(=O)Nc2ccc(-c3ccc(F)c(Cl)c3)cc21 (stereo not given) :
active

Call for entry CC(O)CNC12CC3CC(CC(C3)C1)C2 (stereo not given) :
inactive
